// values below are reported MBC
# Test system: Staphylococcus aureus
# experimental_protocol: Bactericidal activity against methicillin-resistant Staphylococcus aureus clinical isolate 2 after 24 hrs
# Format: functional
# study_conditions: isolate 2, 24 h
Respond with the bare value in µg/mL.

CCCCCCCCCCCCCC(=O)NCCN ... 512
CCCCCCCC/C=C\CCCCCCCC(=O)NCCCN ... 16

Please examine the following record next.
Would you kindly share the measured MBC for "CCCCCCCCCCCC(=O)NCCN" ? 256

----------
# System: Nakaseomyces glabratus
# experimental_protocol: Antifungal activity against Candida glabrata ATCC 90030 by broth microdilution method
# Format: functional
measure: MIC (µg/mL)
Respond with the bare value in µg/mL.

Before answering, review these 5 worked examples.
CCCCCCCCCCCCCCCC(=O)NCCN ... 8
CCCCCCCCCCCC(=O)NCCCCN ... 1020
CCCCCCCCCCCCCC(=O)NCCCCN ... 32
CCCCCCCCCCCCCCCC(=O)NCCCCN ... 32
CCCCCCCCCCCCCC(=O)NCCCN ... 64

Would you kindly share the measured MIC for "CCCCCCCC/C=C\CCCCCCCC(=O)NCCCCN" ? 2

Let us now turn to CCC(C)n1ncn(-c2ccc(N3CCN(c4ccc(OCC5COC(Cn6cncn6)(c6ccc(Cl)cc6Cl)O5)cc4)CC3)cc2)c1=O (stereo unspecified) 256

Let us now turn to "CCCCCCCCCCCCCCCC(=O)NCCCN" 8

Let us now turn to "CCCCCCCC/C=C\CCCCCCCC(=O)NCCCN" 4

Let us now turn to "CCCCCCCCCCCCCC(=O)NCCN" 16

Let us now turn to "CCCCCCCCCCCC(=O)NCCN" 16

Cited source: ChEMBL document CHEMBL3352328
